- Tested on: Escherichia coli TOP10
- Measurement notes: shrunken log2 fold change of peptide-encoding DNA abundance (4.5 h post-induction vs induction); higher = less antimicrobial activity (less host growth inhibition)
- Condition summary: time post-induction: 4.5 h; library: site-saturation at positions 5, 18, 19, 20
Test readout: shrunken log2 fold change

Tell us which shrunken log2 fold change value is on record for RRIRPRPPRLPRPRPRPNVKPRP
-0.475

Tell us which shrunken log2 fold change value is on record for RRIRCRPPRLPRPRPRPTYAPRP
0.125

Tell us which shrunken log2 fold change value is on record for RRIRIRPPRLPRPRPRPQPHPRP
-0.00842

Tell us which shrunken log2 fold change value is on record for RRIRMRPPRLPRPRPRPFRFPRP
0.089

Tell us which shrunken log2 fold change value is on record for RRIRLRPPRLPRPRPRPSNIPRP
-0.103

Tell us which shrunken log2 fold change value is on record for RRIRVRPPRLPRPRPRPRYMPRP
-0.528

Tell us which shrunken log2 fold change value is on record for RRIRCRPPRLPRPRPRPKHAPRP
0.302

Tell us which shrunken log2 fold change value is on record for RRIRDRPPRLPRPRPRPHQYPRP
0.0144

Tell us which shrunken log2 fold change value is on record for RRIRLRPPRLPRPRPRPPFHPRP
-0.0331

Tell us which shrunken log2 fold change value is on record for RRIRCRPPRLPRPRPRPAVLPRP
-0.218

Tell us which shrunken log2 fold change value is on record for RRIRARPPRLPRPRPRPCDYPRP
-0.295

Tell us which shrunken log2 fold change value is on record for RRIRFRPPRLPRPRPRPLYIPRP
-0.63

###

Some sequences, each annotated with its measured shrunken log2 fold change.
- System: Escherichia coli TOP10
- Measurement notes: shrunken log2 fold change of peptide-encoding DNA abundance (4.5 h post-induction vs induction); higher = less antimicrobial activity (less host growth inhibition)
- Condition summary: time post-induction: 4.5 h; library: site-saturation at positions 5, 18, 19, 20
Would you mind answering with just the numeric figure?

# annotated cases, reported shrunken log2 fold change shown
RRIRIRPPRLPRPRPRPTQRPRP; 0.187
RRIRKRPPRLPRPRPRPLYFPRP; -0.271
RRIRARPPRLPRPRPRPWTDPRP; -0.0701
RRIRFRPPRLPRPRPRPSNLPRP; -0.56
RRIRKRPPRLPRPRPRPWLTPRP; 0.0883
RRIRCRPPRLPRPRPRPLYPPRP; -0.729
RRIRIRPPRLPRPRPRPMYCPRP; -0.183
RRIRTRPPRLPRPRPRPRYSPRP; 0.0915

Tell us which shrunken log2 fold change value is on record for RRIRHRPPRLPRPRPRPHPQPRP
-0.185

Tell us which shrunken log2 fold change value is on record for RRIRDRPPRLPRPRPRPASQPRP
0.0836

Tell us which shrunken log2 fold change value is on record for RRIRDRPPRLPRPRPRPRTPPRP
0.17

Tell us which shrunken log2 fold change value is on record for RRIRGRPPRLPRPRPRPFGNPRP
0.0288

Tell us which shrunken log2 fold change value is on record for RRIRHRPPRLPRPRPRPHYEPRP
0.0367

Tell us which shrunken log2 fold change value is on record for RRIRMRPPRLPRPRPRPLTGPRP
0.0753

Tell us which shrunken log2 fold change value is on record for RRIRNRPPRLPRPRPRPYPHPRP
-0.0269

###

- Test system: Escherichia coli TOP10
- Measurement notes: shrunken log2 fold change of peptide-encoding DNA abundance (4.5 h post-induction vs induction); higher = less antimicrobial activity (less host growth inhibition)
- Condition summary: time post-induction: 4.5 h; library: site-saturation at positions 5, 18, 19, 20
Lab note: anything with shrunken log2 fold change at or over 0.1 counts as met; the rest go in not met.

# example entries with known answers
RRIRGRPPRLPRPRPRPSADPRP; met
RRIRYRPPRLPRPRPRPWCRPRP; not met
RRIRMRPPRLPRPRPRPERTPRP; not met
RRIRPRPPRLPRPRPRPREVPRP; met

Reported shrunken log2 fold change at or above 0.1? RRIRGRPPRLPRPRPRPAHMPRP
met

Reported shrunken log2 fold change at or above 0.1? RRIRFRPPRLPRPRPRPHPFPRP
not met

Reported shrunken log2 fold change at or above 0.1? RRIRFRPPRLPRPRPRPQLDPRP
met

Reported shrunken log2 fold change at or above 0.1? RRIRKRPPRLPRPRPRPIHQPRP
not met

###

- Test system: Escherichia coli TOP10
- Measurement notes: shrunken log2 fold change of peptide-encoding DNA abundance (4.5 h post-induction vs induction); higher = less antimicrobial activity (less host growth inhibition)
- Condition summary: time post-induction: 4.5 h; library: site-saturation at positions 5, 18, 19, 20
Some sequences, each annotated with its measured shrunken log2 fold change.

# annotated cases, reported shrunken log2 fold change shown
RRIRWRPPRLPRPRPRPITLPRP; 0.107
RRIRGRPPRLPRPRPRPRRSPRP; 0.767
RRIRRRPPRLPRPRPRPDSFPRP; -0.0228
RRIRPRPPRLPRPRPRPSWDPRP; -0.0474
RRIRYRPPRLPRPRPRPWKNPRP; -0.458

Tell us which shrunken log2 fold change value is on record for RRIRERPPRLPRPRPRPTPKPRP
0.525

Tell us which shrunken log2 fold change value is on record for RRIRVRPPRLPRPRPRPLMDPRP
-0.0628

Tell us which shrunken log2 fold change value is on record for RRIRWRPPRLPRPRPRPSSRPRP
0.188

###

- System: Escherichia coli TOP10
- Measurement notes: shrunken log2 fold change of peptide-encoding DNA abundance (4.5 h post-induction vs induction); higher = less antimicrobial activity (less host growth inhibition)
- Condition summary: time post-induction: 4.5 h; library: site-saturation at positions 5, 18, 19, 20
Some sequences, each annotated with its measured shrunken log2 fold change.
Would you mind answering with just the numeric figure?

# annotated cases, reported shrunken log2 fold change shown
RRIRSRPPRLPRPRPRPMLHPRP; -0.424
RRIRKRPPRLPRPRPRPLADPRP; 0.559
RRIRQRPPRLPRPRPRPLRRPRP; 2.24

Moving on to the next sequence.
Answer briefly: shrunken log2 fold change recorded on Escherichia coli TOP10 for RRIRGRPPRLPRPRPRPAMLPRP
0.7

###

- System: Escherichia coli TOP10;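 also: peptides expressed intracellularly from a pBAD plasmid library in pooled LB shake-flask culture, induced with 0.3% L-arabinose, DNA abundance read by NGS, three biological replicates, DESeq2 with apeglm shrinkage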
- Measurement notes: shrunken log2 fold change of peptide-encoding DNA abundance (4.5 h post-induction vs induction); higher = less antimicrobial activity (less host growth inhibition)
- Condition summary: time post-induction: 4.5 h; library: site-saturation at positions 5, 18, 19, 20
Test readout: shrunken log2 fold change

# annotated cases, reported shrunken log2 fold change shown
RRIRCRPPRLPRPRPRPDADPRP; 0.472
RRIRMRPPRLPRPRPRPTSYPRP; -0.0286
RRIRDRPPRLPRPRPRPQQSPRP; 0.0846
RRIRSRPPRLPRPRPRPPKWPRP; 0.329
RRIRHRPPRLPRPRPRPYVNPRP; -0.0772
RRIRTRPPRLPRPRPRPMFLPRP; -0.593
RRIRVRPPRLPRPRPRPWRQPRP; 0.2
RRIRYRPPRLPRPRPRPWDTPRP; -0.639
RRIRCRPPRLPRPRPRPTYTPRP; -0.793
RRIRARPPRLPRPRPRPEDWPRP; 1.63

Tell us which shrunken log2 fold change value is on record for RRIRWRPPRLPRPRPRPLCQPRP
0.0938

Tell us which shrunken log2 fold change value is on record for RRIRDRPPRLPRPRPRPNLIPRP
-0.15

Tell us which shrunken log2 fold change value is on record for RRIRMRPPRLPRPRPRPIYEPRP
-0.0231

Tell us which shrunken log2 fold change value is on record for RRIRKRPPRLPRPRPRPKKGPRP
0.368

Tell us which shrunken log2 fold change value is on record for RRIRTRPPRLPRPRPRPDINPRP
-0.151

Tell us which shrunken log2 fold change value is on record for RRIRRRPPRLPRPRPRPQFCPRP
-0.0309

Tell us which shrunken log2 fold change value is on record for RRIRDRPPRLPRPRPRPIKDPRP
-4

Tell us which shrunken log2 fold change value is on record for RRIRARPPRLPRPRPRPAVLPRP
0.549

Tell us which shrunken log2 fold change value is on record for RRIRQRPPRLPRPRPRPQRHPRP
0.0218

Tell us which shrunken log2 fold change value is on record for RRIRDRPPRLPRPRPRPHAFPRP
-0.0699

Tell us which shrunken log2 fold change value is on record for RRIRIRPPRLPRPRPRPEYSPRP
-0.119

Tell us which shrunken log2 fold change value is on record for RRIRYRPPRLPRPRPRPTKPPRP
-0.013

Tell us which shrunken log2 fold change value is on record for RRIRSRPPRLPRPRPRPCWAPRP
0.143

Tell us which shrunken log2 fold change value is on record for RRIRMRPPRLPRPRPRPMNMPRP
-0.344

Tell us which shrunken log2 fold change value is on record for RRIRLRPPRLPRPRPRPNCRPRP
0.00739

Tell us which shrunken log2 fold change value is on record for RRIRGRPPRLPRPRPRPWAIPRP
0.259
